Kindly state HEK assay Human EC50 for each of the entries shown.
Subject of test: human IL-13 (human, UniProt P35225 35-146, limits assumed)
Sequence (P35225 35-146 limits assumed): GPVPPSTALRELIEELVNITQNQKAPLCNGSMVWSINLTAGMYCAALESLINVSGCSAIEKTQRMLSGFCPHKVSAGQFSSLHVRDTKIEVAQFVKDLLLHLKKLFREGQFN
Protocol: cell-based or functional assay
Give bare numbers, in pM.

DOM10-53-474 (other, Anti-IL-13 immunoglobulin single variable domain (dAb), monomer) VH: GVQLLESGGGLVQPGGSLRLSCAASGFTFAWYDMGWVRQAPGKGLEWVSSIDWHGEVTYYADSVKGRFTISRDNSKNTLYLQMNSLRAEDTAVYYCATAEDEPGYDYWGQGTLVTVSS: 2000
DOM10-53-567 (other) VH: GVQLLESGGGLVQPGGSLRLSCAASGFVFAWYDMGWVRQAPGKGLEWVSSIDWHGEVTYYADSVKGRFTISRDNSKNTLYLQMNSLRAEDTAVYYCATAEDEPGYDYWGQGTLVTVSS: 310

Alright, here's another binder for you.
Lab note: DOM10-53-568 (other) VH: GVQLLESGGGLVQPGGSLRLSCAASGFVFAWYDMGWVRQAPGKGLEWVSSIDWHGKITYYADSVKGRFTISRDNSKNTLYLQMNSLRAEDTAVYYCATAEDEPGYDYWGQGTLVTVSS gave HEK assay Human EC50 of 620
